# EXPERIMENTAL_TARGET: T1, AD4 polypeptide (cloned AD4 fragment of CMV AD169 envelope glycoprotein B) (human cytomegalovirus strain AD169, UniProt P06473 112-438)
# T1 construct: also called antigenic domain 4
# PROTOCOL_NOTES: SPR (Biacore T200), antibody captured on anti-human IgG CM5 chip, AD4 polypeptide as analyte, 1:1 model
PROPERTY_MEASURED: koff (s⁻¹)
Just the number please, in s⁻¹, no unit attached.

Previously resolved entries follow.
1) C5 (antibody, V domains shown, Human IgG, transiently expressed in HEK293) VH: QVQLQESGPGLVKPLETLSLTCTVSGGSISSGSFYWTWIRQHPGKGLEWIGYIHSSGTTYYNPSLKSRLNISRDTSKNQFTLKLSSVTAADTAVYYCAKEIIQWPRRWFDPWGQGTLVTVSS VL: QSMLTQPPSVSAAPGQKVIISCSGSSSNIGNNFVNWYQKFPGTAPKLLIYDNDKRPSGIPDRFSGSKSGTSATLGITGLQTGDEAEYYCGTWDSSLTAGVFGGGTTLTVLG ... 0.000201
2) C4 (antibody, V domains shown, Human IgG, transiently expressed in HEK293) VH: QVQLQESGPGLVKPLETLSLTCTVSGGSISSGSFYWTWIRQHPGKGLEWIGYIHSSGTTYYNPSLKSRLNISRDTSKNQFTLKLSSVTAADTAVYYCAKEIIQWPRRWFDPWGQGTLVTVSS VL: QSVLTQPPSVSAAPGQKVIISCSGSGSNIGSHYVNWYQQLPGAAPKLLIYDNDKRPSGIPDRFSGSKSGTSATLAITGLQTGDEADYHCATWDGTLTAGVFGGGTKLTVLG ... 0.00063

I have this binder here, C3 (antibody, V domains shown, Human IgG, transiently expressed in HEK293) VH: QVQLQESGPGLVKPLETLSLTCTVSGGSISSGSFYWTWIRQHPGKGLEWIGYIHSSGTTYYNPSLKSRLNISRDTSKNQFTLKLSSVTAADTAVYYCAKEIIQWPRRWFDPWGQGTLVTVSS VL: QSMLTQPPSVSAAPGQKVIISCSGSSSNIGNNYVNWYQQLPGTAPKLLIYDNDKRPSGIPDRFSGSKSGTSATLGITGLQTGDEADYYCGTWDSTLTAGVFGGGTKLTVLG , and I need its recorded koff.
0.00068

Now consider C12 (antibody, V domains shown, Human IgG, transiently expressed in HEK293) VH: QVQLQESGPGLVKPLETLSLTCTVSGGSIRGGDYWWTWVRQPPGKGLEWLGYIYRTGSTYYNPSLKSRLTISLDTSKNHFSLKLASATAADTAVYYCARDPGDDSGGNSGLDYWGQGVLVSVSS VL: QSMLTQPPSVSAAPGQKVIISCSGSSSNIGNNFVNWYQKFPGTAPKLLIYDNDKRPSGIPDRFSGSKSGTSATLGITGLQTGDEAEYYCGTWDSSLTAGVFGGGTTLTVLG .
0.00369

Please give the result for C8 (antibody, V domains shown, Human IgG, transiently expressed in HEK293) VH: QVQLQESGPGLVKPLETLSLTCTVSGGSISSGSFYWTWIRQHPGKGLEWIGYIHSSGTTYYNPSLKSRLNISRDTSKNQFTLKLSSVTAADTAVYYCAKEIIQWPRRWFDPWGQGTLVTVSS VL: QSVLTQPPSVSAAPGQKVTISCSGSRSNIGKNYVYWYQQLPGTAPKLLIYDNNKRPSGIPDRFSGSKSGTSATLAITGLQTGDEADYYCGTWDSSLKTGIFFGGGTKLTVLG too.
0.00186

Repeat for the following binder: C11 (antibody, V domains shown, Human IgG, transiently expressed in HEK293) VH: EVQLLESGGGLIQPGGSLRLSCVASGFTFTRHAINWVRQAPGKGLEWVSAISGSGSSTYYADSVKGRFTISRDNAKNTLYLQMNRLRVEDTAVYYCAKDKDYGMVAATPDAFDIWGQGTMVTVSS VL: QSVLTQPPSVSAAPGQKVTISCSGSRSNIAKNYVYWYQQLPGTAPKLLIYDTNKRPSGIPDRFSGSKSGTSATLAITGLQTGDEADYYCGTWDSSLKTAIFFGGGTTVTVLG
0.00109

Also, C10 (antibody, V domains shown, Human IgG, transiently expressed in HEK293) VH: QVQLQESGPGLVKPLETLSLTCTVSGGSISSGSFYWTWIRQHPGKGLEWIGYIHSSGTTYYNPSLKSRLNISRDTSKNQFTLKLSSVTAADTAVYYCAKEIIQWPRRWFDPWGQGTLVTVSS VL: QSVLTQPPSASGTPGQRVTISCSGSSSNIGSNYIDWYQQLPGTGPQLLTYRNNQRPSGVPDRFSGSKSGTSASLAISGLRSEDEADYYCASWDDSLSSPVFGGGTKLTVLG please.
0.00197

Reference source for all entries: patent US20150110794A1
